Biological target: Nuclear receptor subfamily 1 group I member 2 (Rattus norvegicus)
Test: Rat pregnane X receptor (rPXR) activation by small molecules, qHTS assay (AID 1346983); also: % is scaled to controls: 0 for no effect and ±100 for the full control effect; nearly all actives have a fitted effect of over 20% in size
Settings: rPXR luciferase reporter cells, One-Glo luminescence, 24 h; hits give high values
Inconclusive results are not listed.
The reader will find reported max activation values listed item by item below.
Note: unit % is implicit; provide only the numeric part.

As a guide, the following entries are already answered.
>  <MOLECULE>
CCCC(CCC)C(=O)O

>  <max activation [%]>
6.66

$$$$
>  <MOLECULE>
CCOc1ccc(NC(=O)CC(C)O)cc1 (configuration not stated)

>  <max activation [%]>
0.554

$$$$

For the record O=C(O)c1cc(N=Nc2ccc(S(=O)(=O)Nc3ccccn3)cc2)ccc1O , what value of max activation is listed for Nuclear receptor subfamily 1 group I member 2 (Rattus norvegicus)?
-4.4

Field: max activation (Nuclear receptor subfamily 1 group I member 2 (Rattus norvegicus)). Entry: CC(O)C(=O)O (configuration not stated)
-1.38

Any idea what max activation came out for CCCCOC(=O)CC(CC(=O)OCCCC)(OC(C)=O)C(=O)OCCCC on Nuclear receptor subfamily 1 group I member 2 (Rattus norvegicus)?
0.822

max activation of O=C1CN(/N=C/c2ccc([N+](=O)[O-])o2)C(=O)N1 on Nuclear receptor subfamily 1 group I member 2 (Rattus norvegicus)?
-5.45

Hi! What's the reported max activation for CC1(C)[C@@H]2CC[C@@]1(C)C(=O)C2 on Nuclear receptor subfamily 1 group I member 2 (Rattus norvegicus)?
-1.13

====

Assay: qHTS assay to identify small molecule antagonists of the estrogen receptor alpha (ER-alpha) signaling pathway using the BG1 cell line - cell viability counter screen (AID 743081);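 also: compound given together with 17beta-estradiol as the ER stimulus; nearly all actives have a fitted effect of over 45% in size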
Settings: BG1Luc4E2 viability, CellTiter-Fluor, 22 h; series mostly up to 70.3 µM
Records with an inconclusive call do not appear. Calls of active or inactive are those of the source. Calls come from the whole dose curve; as a rule, active = well fitted cell-killing curve with a large enough effect in the repeat runs; inconclusive = weak or mixed curves, or effect the other way; inactive = flat fitted curve, though single readings scatter.
Parameter call: string, one of active, inactive

Solved cases below.
>  <COMPOUND>
CCCCCCCCCCCCCCCC(=O)O

>  <ASSIGNED_LABEL>
inactive

$$$$
>  <COMPOUND>
CC(C)[C@@H]1CC[C@@H](C)C[C@H]1O

>  <ASSIGNED_LABEL>
inactive

$$$$
>  <COMPOUND>
C[C@]12C=CC(=O)C=C1CC[C@@H]1[C@@H]2[C@@H](O)C[C@@]2(C)[C@H]1CC[C@]2(O)C(=O)CO

>  <ASSIGNED_LABEL>
inactive

$$$$
>  <COMPOUND>
Oc1ccc(/C=C/c2cc(O)cc(O)c2)cc1

>  <ASSIGNED_LABEL>
inactive

$$$$
>  <COMPOUND>
O=C1CN(/N=C/c2ccc([N+](=O)[O-])o2)C(=O)N1

>  <ASSIGNED_LABEL>
active

$$$$
>  <COMPOUND>
Cc1cc(=O)[nH]c(=S)[nH]1

>  <ASSIGNED_LABEL>
inactive

$$$$
>  <COMPOUND>
O=c1cc[nH]c(=S)[nH]1

>  <ASSIGNED_LABEL>
inactive

$$$$
>  <COMPOUND>
Nc1ccc(S(=O)(=O)Nc2nccs2)cc1

>  <ASSIGNED_LABEL>
inactive

$$$$
>  <COMPOUND>
OCCc1ccccc1

>  <ASSIGNED_LABEL>
inactive

$$$$
>  <COMPOUND>
Nc1ccn([C@H]2CC[C@@H](CO)O2)c(=O)n1

>  <ASSIGNED_LABEL>
inactive

$$$$

Test call for this compound, please: O=S(=O)(O)c1ccc2cc(O)ccc2c1
inactive

Tell me the recorded outcome of this test for Cc1ccccc1C(OCCN(C)C)c1ccccc1 (stereo not given) .
inactive

Outcome logged for CCOc1ccc(NC(=O)CC(C)O)cc1 (stereo not given) in this assay:
inactive

====

Assay: qHTS assay to test for compound auto fluorescence at 535 nm (green) in HepG2 cells (AID 720675); also: % is scaled to controls: 0 for no effect and ±100 for the full control effect
Details: green autofluorescence 485/535 nm, 1 h; series mostly up to 91.3 µM
Activity calls are given as the source filed them. The call rests on the fitted dose curve; in most records, active means well fitted curve in the direction sought with a large enough effect in the repeat runs; inconclusive means weak or mixed curves; inactive means flat fitted curve, though single readings scatter.

>  <SMILES>
N=C(N)c1ccc(OCCCCCOc2ccc(C(=N)N)cc2)cc1

>  <outcome>
inactive

$$$$
>  <SMILES>
O=C(O)c1cccnc1

>  <outcome>
inactive

$$$$
>  <SMILES>
Cc1cn([C@H]2C[C@H](N=[N+]=[N-])[C@@H](CO)O2)c(=O)[nH]c1=O

>  <outcome>
inactive

$$$$

These data points were gathered from PubChem BioAssay (Tox21).
